Source of measurements: patent EP4559908A1

Biological target: human ANO6 (variant 5) (Homo sapiens)
Construct: expressed in transfected cells; host or cells: Fischer rat thyroid (FRT) cells
Sequence (Q4KMQ2 1-931 isoform Q4KMQ2-2): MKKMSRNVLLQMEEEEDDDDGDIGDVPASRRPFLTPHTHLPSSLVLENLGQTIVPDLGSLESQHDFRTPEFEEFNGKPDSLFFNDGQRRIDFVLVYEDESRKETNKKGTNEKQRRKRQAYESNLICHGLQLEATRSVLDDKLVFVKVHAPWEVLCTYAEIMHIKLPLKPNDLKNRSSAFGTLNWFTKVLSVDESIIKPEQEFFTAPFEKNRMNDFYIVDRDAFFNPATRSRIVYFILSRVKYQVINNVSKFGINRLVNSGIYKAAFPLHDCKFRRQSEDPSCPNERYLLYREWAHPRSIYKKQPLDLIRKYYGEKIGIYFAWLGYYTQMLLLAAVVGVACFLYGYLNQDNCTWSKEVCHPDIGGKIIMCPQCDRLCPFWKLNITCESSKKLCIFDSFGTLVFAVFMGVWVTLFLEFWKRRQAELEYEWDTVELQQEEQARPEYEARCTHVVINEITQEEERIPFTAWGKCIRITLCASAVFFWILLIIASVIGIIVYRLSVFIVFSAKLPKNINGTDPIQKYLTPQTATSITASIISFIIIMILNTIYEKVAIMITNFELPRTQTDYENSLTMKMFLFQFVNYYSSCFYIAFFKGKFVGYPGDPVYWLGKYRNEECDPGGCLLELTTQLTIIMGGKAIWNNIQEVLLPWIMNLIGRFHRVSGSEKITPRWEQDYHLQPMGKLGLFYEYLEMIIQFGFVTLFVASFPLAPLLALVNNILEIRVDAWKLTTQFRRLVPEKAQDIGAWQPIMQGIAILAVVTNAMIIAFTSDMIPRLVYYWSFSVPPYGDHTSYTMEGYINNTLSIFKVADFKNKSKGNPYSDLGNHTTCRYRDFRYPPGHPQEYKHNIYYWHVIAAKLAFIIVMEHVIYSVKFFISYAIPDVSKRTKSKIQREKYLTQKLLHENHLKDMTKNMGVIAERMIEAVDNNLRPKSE
Experiment: Lact C2 assay (measuring phosphatidylserine externalization scramblase function)
Type: cell-based
Conditions: FRT, compound 50 nM; FRT cells expressing human ANO6 (variant 5); ionomycin 10 µM; Lact-C2-GFP fluorescence; average of three tests; read-out: % Inhibition 50 nM
Give inhibition at 0.05 µM for every item shown.

Record FC(F)(F)c1ccc2[nH]c(-c3cccc(Nc4ncc(-c5ccccn5)cn4)c3)nc2n1 / human ANO6 (variant 5) (Homo sapiens), inhibition at 0.05 µM recorded as 30 to 60%

Record Fc1cc(Nc2cccc(-c3nc4ccccc4[nH]3)c2)ccc1-c1cccnn1 / human ANO6 (variant 5) (Homo sapiens), inhibition at 0.05 µM recorded as > 60%

Record CC(C)(C)c1ccc2nc(-c3cccc(Nc4ccc(-c5cccnn5)cc4)c3)[nH]c2c1 / human ANO6 (variant 5) (Homo sapiens), inhibition at 0.05 µM recorded as 30 to 60%

Record Fc1ccc2nc(-c3cccc(Nc4ccc(-c5cccnn5)cc4)c3)[nH]c2c1 / human ANO6 (variant 5) (Homo sapiens), inhibition at 0.05 µM recorded as > 60%

Record c1cc(Nc2cnc(-c3ccncn3)cn2)cc(-c2nc3ccccc3[nH]2)c1 / human ANO6 (variant 5) (Homo sapiens), inhibition at 0.05 µM recorded as > 60%

Record FC(F)(F)c1cc2[nH]c(-c3cccc(Nc4ccc(-c5cccnn5)cn4)c3)nc2cn1 / human ANO6 (variant 5) (Homo sapiens), inhibition at 0.05 µM recorded as > 60%

Record Fc1cc2nc(-c3cccc(Nc4ccc(-c5cccnn5)cc4)c3)[nH]c2cc1F / human ANO6 (variant 5) (Homo sapiens), inhibition at 0.05 µM recorded as > 60%

Record c1ccc(-c2ccc(Nc3cccc(-c4nc5ccccc5[nH]4)c3)nc2)nc1 / human ANO6 (variant 5) (Homo sapiens), inhibition at 0.05 µM recorded as > 60%

Record c1ccc(-c2cnc(Nc3cccc(-c4nc5ccccc5[nH]4)c3)cn2)nc1 / human ANO6 (variant 5) (Homo sapiens), inhibition at 0.05 µM recorded as > 60%

Record FC(F)(F)c1cc2nc(-c3cccc(Nc4ccc(-c5ccccc5)nn4)c3)[nH]c2cc1Cl / human ANO6 (variant 5) (Homo sapiens), inhibition at 0.05 µM recorded as > 60%

Record Fc1cccc(-c2cnc(Nc3cccc(-c4nc5ccc(C(F)(F)F)cc5[nH]4)c3)nc2)c1 / human ANO6 (variant 5) (Homo sapiens), inhibition at 0.05 µM recorded as > 60%

Record FC(F)(F)c1ccc2nc(-c3cccc(Nc4ncc(-c5cccnn5)cn4)c3)[nH]c2c1 / human ANO6 (variant 5) (Homo sapiens), inhibition at 0.05 µM recorded as > 60%

Record FC(F)(F)c1ccc2nc(-c3cncc(Nc4ccc(-c5cccnn5)cc4)c3)[nH]c2c1 / human ANO6 (variant 5) (Homo sapiens), inhibition at 0.05 µM recorded as > 60%

Record Cc1noc(-c2ccc3nc(-c4cccc(Nc5ccc(-c6cccnn6)cc5)c4)[nH]c3c2)n1 / human ANO6 (variant 5) (Homo sapiens), inhibition at 0.05 µM recorded as 30 to 60%

Record COC(=O)c1ccc2nc(-c3cccc(Nc4ccc(-c5cccnn5)cc4)c3)[nH]c2c1 / human ANO6 (variant 5) (Homo sapiens), inhibition at 0.05 µM recorded as > 60%

Record Fc1cccc(-c2ccc(Nc3cccc(-c4nc5ccc(C(F)(F)F)cc5[nH]4)c3)nc2)c1 / human ANO6 (variant 5) (Homo sapiens), inhibition at 0.05 µM recorded as > 60%

Record Fc1cc2nc(-c3cccc(Nc4ccc(-c5ccccc5)nn4)c3)[nH]c2cc1Br / human ANO6 (variant 5) (Homo sapiens), inhibition at 0.05 µM recorded as 30 to 60%

Record Cc1cccc2nc(-c3cccc(Nc4ccc(-c5cccnn5)cc4)c3)[nH]c12 / human ANO6 (variant 5) (Homo sapiens), inhibition at 0.05 µM recorded as > 60%

Record Clc1ccc2nc(-c3cccc(Nc4ccc(-c5cccnn5)cc4)c3)[nH]c2c1 / human ANO6 (variant 5) (Homo sapiens), inhibition at 0.05 µM recorded as > 60%

Record c1cc(Nc2ccc(-c3ccncc3)cc2)cc(-c2nc3ccccc3[nH]2)c1 / human ANO6 (variant 5) (Homo sapiens), inhibition at 0.05 µM recorded as 30 to 60%

Record Cc1ccc2nc(-c3cccc(Nc4ccc(-c5cccnn5)cc4)c3)[nH]c2c1 / human ANO6 (variant 5) (Homo sapiens), inhibition at 0.05 µM recorded as > 60%

Record FC(F)(F)c1cc2[nH]c(-c3cccc(Nc4ccc(-c5ccccn5)cn4)c3)nc2cn1 / human ANO6 (variant 5) (Homo sapiens), inhibition at 0.05 µM recorded as > 60%

Record c1cc(Nc2ccc(-c3cccnn3)cc2)cc(-c2nc3ccccc3[nH]2)c1 / human ANO6 (variant 5) (Homo sapiens), inhibition at 0.05 µM recorded as > 60%

Record c1cnc(-c2ccc(Nc3cccc(-c4nc5ccccc5[nH]4)c3)cc2)nc1 / human ANO6 (variant 5) (Homo sapiens), inhibition at 0.05 µM recorded as > 60%

Record c1cc(Nc2ncc(-c3ccsc3)cn2)cc(-c2nc3ccccc3[nH]2)c1 / human ANO6 (variant 5) (Homo sapiens), inhibition at 0.05 µM recorded as 30 to 60%
